test.description: Cytotoxicity against VSMC (unknown origin) cells assessed as cell survival at 10 uM measured after 12 hrs by MTT assay
Assay type: toxicity, cell-based
reported.conditions: read-out: Activity
Each entry below carries its reported viability at 12 h, 10 µM.

{"columns": ["compound", "unit.annotation", "viability at 12 h, 10 µM"],
 "data": [
  ["COc1cc2ccc(=O)oc2cc1O [SCOPOLETIN]", "%", 102],
  ["COc1cc2ccc(=O)oc2c2c1OC(C)(C)C=C2", "%", 95.2],
  ["CCCOc1cc2ccc(=O)oc2c2c1OC(C)(C)C=C2", "%", 105],
  ["CCOc1cc2ccc(=O)oc2c2c1OC(C)(C)C=C2", "%", 105]
]}
